biological target: Nuclear receptor ROR-gamma (Homo sapiens, UniProt P51449); assay: Inverse agonist activity at RORgamma in human CD4+ T cells assessed as inhibition of IL-17A release after 4 days by HTRF assay; format: cell-based, T-cell
Sequence (P51449 whole entry): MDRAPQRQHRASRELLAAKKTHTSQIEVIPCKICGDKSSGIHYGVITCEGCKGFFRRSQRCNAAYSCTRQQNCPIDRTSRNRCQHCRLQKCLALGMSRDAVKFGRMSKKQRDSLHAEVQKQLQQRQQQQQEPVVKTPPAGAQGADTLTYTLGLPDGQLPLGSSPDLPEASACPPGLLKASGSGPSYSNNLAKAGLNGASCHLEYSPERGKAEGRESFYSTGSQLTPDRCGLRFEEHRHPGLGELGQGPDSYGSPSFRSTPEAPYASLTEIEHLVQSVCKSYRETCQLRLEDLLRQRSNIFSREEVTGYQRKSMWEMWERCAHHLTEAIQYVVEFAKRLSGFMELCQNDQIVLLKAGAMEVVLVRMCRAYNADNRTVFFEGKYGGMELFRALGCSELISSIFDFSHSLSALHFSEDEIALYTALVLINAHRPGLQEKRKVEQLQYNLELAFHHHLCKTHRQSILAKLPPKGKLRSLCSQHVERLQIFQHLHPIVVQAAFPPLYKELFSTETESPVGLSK
readout.label: IC50 (µM)
Respond numerically; units are µM and should not be typed.

Inquiry: Fill in the recorded IC50 for this molecule, with Nuclear receptor ROR-gamma (Homo sapiens, UniProt P51449) as test system: Cc1cccc(Cl)c1Oc1nn(-c2ccc(C(=O)O)cc2)c2ccc(C(=O)N(C)C)cc12
Reply text: 0.15

---

experiment: physchem; settings: buffer, pH 6.5
Assign labels as follows, please: Criterion met for logD below 2; Criterion not met for logD equal to or exceeding 2.

Inquiry: Is 2 strictly greater than the molecule's reported logD? molecule: O=C(O)c1ccc(-n2nc([S+]([O-])c3c(Cl)cccc3Cl)c3ccccc32)cc1 (centres undefined)
Reply text: Criterion met

Inquiry: For this molecule, is logD lower than 2? Clc1cccc(Cl)c1Oc1n[nH]c2ccccc12
Reply text: Criterion not met

Inquiry: Say whether its logD is strictly beneath 2. Entry: O=C(O)c1cc(F)c(-n2nc(Oc3c(Cl)cccc3Cl)c3ccccc32)c(F)c1
Reply text: Criterion not met

Inquiry: Bench note: check whether O=C(O)c1ccc(-n2nc(Sc3c(Cl)cccc3Cl)c3cc(C(=O)N4CCOCC4)ccc32)cc1 shows logD below 2
Reply text: Criterion met

Inquiry: logD under 2? Item: O=C(O)c1ccc(-n2nc(Nc3c(Cl)cccc3Cl)c3ccccc32)cc1
Reply text: Criterion met

Inquiry: Lab note: confirm whether the reported logD for this molecule is below 2, equality not counting. molecule: Cc1cccc(Cl)c1Oc1nn(-c2ccc(C(=O)O)cc2)c2ccc(C(=O)N(C)C)cc12
Reply text: Criterion met

Inquiry: Is the reported logD for O=C(O)c1ccc(-n2nc(Sc3c(Cl)cccc3Cl)c3cc(C(=O)N4CCCC4)ccc32)cc1 strictly below 2?
Reply text: Criterion met

Inquiry: Dear colleague, could you confirm whether logD of CNC(=O)c1ccc2c(c1)c(Sc1c(Cl)cccc1Cl)nn2-c1ccc(C(=O)O)cc1 falls below 2? Thanks.
Reply text: Criterion met

Inquiry: Given the entry O=C(O)c1ccc(-c2nn(C(=O)c3c(Cl)cccc3Cl)c3ccccc23)cc1 , would its reported logD be below 2?
Reply text: Criterion not met

---

assay: physchem; conditions: buffer, pH 6.5
readout.label: logD
Would you mind answering with just the numeric figure?

Inquiry: Bench note: what logD did O=C(O)c1ccc(-n2nc(Sc3c(Cl)cccc3Cl)c3ccccc32)cc1 show?
Reply text: 2.9

Inquiry: Record request: logD value, item Cc1cccc2c1c(Oc1c(Cl)cccc1Cl)nn2-c1ccc(C(=O)O)cc1
Reply text: 3.6

Inquiry: # query: logD of entry CN(C)C(=O)c1ccc2c(c1)c(Sc1c(Cl)cccc1Cl)nn2-c1ccc(C(=O)O)cc1
Reply text: 1.6

Inquiry: Item under review: O=C(O)c1ccc(-n2nc(Oc3c(Cl)cccc3Cl)c3c(F)cccc32)cc1 . Reported logD?
Reply text: 2.8

Inquiry: Consider the compound shown here: CN(C)C(=O)c1ccc2c(c1)c(Sc1ccc(Cl)cc1Cl)nn2-c1ccc(C(=O)O)cc1 What is its recorded logD?
Reply text: 2.2

---

assay: in vitro; details: human, neonatal keratinocytes
Description: Photocytotoxicity against human neonatal keratinocytes assessed as decrease in cell viability by measuring ratio of IC50 in presence of UV to IC50 in absence of UV after 30 mins by neutral red dye based assay
Assign selectivity ratio at 0.5 h to each entry below.
// no unit, no text: just the number

Inquiry: Form field: reported selectivity ratio at 0.5 h of O=C(O)c1ccc(-n2nc(Oc3c(Cl)cccc3Cl)c3cccnc32)cc1
Reply text: 190

Inquiry: # input molecule: CS(=O)(=O)c1ccc2c(c1)c(Oc1c(Cl)cccc1Cl)nn2-c1ccc(C(=O)O)cc1 ; wanted: its selectivity ratio at 0.5 h
Reply text: 87

Inquiry: Value lookup for selectivity ratio at 0.5 h; key = O=C(O)[C@H]1CC[C@@H](n2nc(Oc3c(Cl)cccc3Cl)c3ccccc32)CC1
Reply text: 108

Inquiry: May I ask what selectivity ratio at 0.5 h has been recorded for O=C(O)[C@H]1CC[C@H](n2nc(Oc3c(Cl)cccc3Cl)c3ccccc32)CC1 ?
Reply text: 41

Inquiry: Any idea what its selectivity ratio at 0.5 h is? The molecule is O=C(O)c1cc(F)c(-n2nc(Oc3c(Cl)cccc3Cl)c3ccccc32)c(F)c1
Reply text: 16

Inquiry: Given the molecule CCc1nn(C)c(CC)c1Oc1nn(-c2ccc(C(=O)O)cc2)c2ccccc12 , what is its reported selectivity ratio at 0.5 h?
Reply text: 121

Inquiry: Query (molecule): Cc1cc(C(=O)O)ccc1-n1nc(Oc2c(Cl)cccc2Cl)c2ccccc21 ; field requested: selectivity ratio at 0.5 h
Reply text: 41

Inquiry: Can you look up the measured selectivity ratio at 0.5 h of O=C(O)c1ccc(-n2nc(Oc3c(Cl)cccc3Cl)c3ccccc32)c(F)c1 for me?
Reply text: 32

Inquiry: For the molecule shown here, CN(C)C(=O)c1ccc2c(Oc3c(Cl)cccc3Cl)nn(-c3ccc(C(=O)O)cc3)c2c1 , give the reported selectivity ratio at 0.5 h.
Reply text: 18

Inquiry: Look up selectivity ratio at 0.5 h: N#Cc1ccc2c(c1)c(Oc1c(Cl)cccc1Cl)nn2-c1ccc(C(=O)O)cc1
Reply text: 138

Inquiry: Please report the recorded selectivity ratio at 0.5 h for O=C(O)c1ccc(-n2nc(Oc3c(Cl)cccc3Cl)c3cccc(F)c32)cc1 .
Reply text: 30

Inquiry: selectivity ratio at 0.5 h lookup needed for O=C(O)c1ccc(-n2nc(Oc3c(Cl)cccc3Cl)c3ccccc32)cn1 , thanks.
Reply text: 30

Inquiry: GET /values?readout=selectivity ratio at 0.5 h&item= O=C(O)c1ccc(-n2nc(Oc3c(Cl)cccc3Cl)c3ncccc32)cc1
Reply text: 11

Inquiry: Given the molecule Clc1cccc(Cl)c1Oc1n[nH]c2ccccc12 , what is its reported selectivity ratio at 0.5 h?
Reply text: 1.6

Inquiry: Give the measured selectivity ratio at 0.5 h of O=C(O)c1ccc(-n2nc(Oc3c(Cl)cccc3Cl)c3ccccc32)nc1 .
Reply text: 90

Inquiry: Fill blank: measured selectivity ratio at 0.5 h of the molecule Cc1cccc2c1c(Oc1c(Cl)cccc1Cl)nn2-c1ccc(C(=O)O)cc1 is ____.
Reply text: 19

Inquiry: Data request, read-out selectivity ratio at 0.5 h, for Cc1cccc(Cl)c1Oc1nn(-c2ccc(C(=O)O)cc2)c2ccc(C(=O)N(C)C)cc12
Reply text: 36

---

assay: physchem; settings: buffer, pH 6.5
Would you please tag the item MET when its logD is 2 or above, and NOT MET when it is below?

Inquiry: Identify whether the reported logD of the following molecule is 2 or greater: CN(CCO)C(=O)c1ccc2c(c1)c(Sc1c(Cl)cccc1Cl)nn2-c1ccc(C(=O)O)cc1
Reply text: NOT MET

Inquiry: Exam item: decide whether the reported logD for Cc1cc(C(=O)O)ccc1-n1nc(Oc2c(Cl)cccc2Cl)c2ccccc21 is at least 2.
Reply text: MET

Inquiry: Decide: is the reported value of logD for CN(C)C(=O)c1ccc2c(c1)c(S(=O)(=O)c1c(Cl)cccc1Cl)nn2-c1ccc(C(=O)O)cc1 equal to or greater than 2?
Reply text: NOT MET

Inquiry: Textbook exercise: given the entry O=C(O)c1ccc(-n2nc(Oc3c(Cl)cccc3Cl)c3ccccc32)nc1 , state whether its logD is greater than or equal to 2.
Reply text: MET

Inquiry: logD >= 2 for O=C(O)c1ccc(-n2nc(S(=O)(=O)c3c(Cl)cccc3Cl)c3ccccc32)cc1 ?
Reply text: NOT MET

---

I'd appreciate it if you could supply pIC50 values for the items below.
target: Nuclear receptor ROR-gamma (Homo sapiens)
Bear in mind: pIC50 is minus log10 of a mol/L concentration; give just that figure.

Inquiry: Give its pIC50 value. Item: O=C(O)c1ccc(-n2nc(Oc3c(Cl)cccc3Cl)c3ncccc32)cc1
Reply text: 5.68

Inquiry: Name the reported pIC50 value associated with the compound Cc1ccc([C@@H](NC(=O)Cc2ccc3oc([C@@H](O)c4c(C)noc4C)cc3c2)c2ccccc2)c(C)c1
Reply text: 7.36

Inquiry: Find the recorded pIC50 belonging to O=C(O)c1ccc(-n2nc(Sc3c(Cl)cccc3Cl)c3ccccc32)cc1 and report it.
Reply text: 5.60

Inquiry: // pIC50 lookup, key: CCN(C)C(=O)c1ccc2c(c1)c(Sc1c(Cl)cccc1Cl)nn2-c1ccc(C(=O)O)cc1
Reply text: 5.19

Inquiry: Please look up its pIC50: O=C(O)c1ccc(-n2nc(Oc3c(Cl)cccc3Cl)c3cccc(F)c32)cc1
Reply text: 7.06

Inquiry: Dear colleague, I am looking for the recorded pIC50 of the following compound: O=C(O)c1ccc(-n2nc(Sc3c(Cl)cccc3Cl)c3cc(C(=O)N4CCC4)ccc32)cc1
Reply text: 5.92

Inquiry: What value of measured pIC50 is listed for CN1CCN(C(=O)c2ccc3c(c2)c(Sc2c(Cl)cccc2Cl)nn3-c2ccc(C(=O)O)cc2)CC1 ?
Reply text: 5.04

Inquiry: Which measured pIC50 value corresponds to O=C(O)c1ccc(-n2nc(Oc3c(Cl)cccc3Cl)c3ccccc32)nc1 ?
Reply text: 5.96

Inquiry: Request the reported pIC50 associated with O=C(O)c1ccc(-n2nc(Oc3c(Cl)cccc3Cl)c3c(F)cccc32)cc1
Reply text: 6.59

Inquiry: So what does the record say about pIC50 for CCc1nn(C)c(CC)c1Oc1nn(-c2ccc(C(=O)O)cc2)c2ccccc12 ?
Reply text: 5.32

Inquiry: What value of pIC50 has been recorded for this entry: O=C(O)c1ccc(-n2nc(Sc3c(Cl)cccc3Cl)c3cc(C(=O)N4CCOCC4)ccc32)cc1
Reply text: 5.22

Inquiry: // pIC50 lookup, key: Cc1cc(C)c(Sc2nn(-c3ccc(C(=O)O)cc3)c3ccc(C(=O)N(C)C)cc23)c(C)c1
Reply text: 5.57

Inquiry: Which pIC50 value is on record for Cc1cc(C(=O)O)ccc1-n1nc(Oc2c(Cl)cccc2Cl)c2ccccc21 ?
Reply text: 5.44
